Test system: Human immunodeficiency virus
Experiment: Antiviral activity against HIV-1 assessed as inhibition of HIV infection in human T cells by cell based assay
Type: functional, organism-based
Conditions: Human immunodeficiency virus 1, T-cell
recorded-endpoint: EC50 (pM)
All answers are understood in pM, so give the number only.

Identify measured EC50 corresponding to COc1cc2c(cc1Cc1cccc(Cl)c1F)c(=O)c(C(=O)O)cn2[C@H](CO)C(C)C
900

----------
Target: Integrase (Human immunodeficiency virus 1, UniProt T1QYY3, G140S/Q148H)
Assay: Inhibition of HIV-1 integrase G140S/Q148H double mutant
recorded-endpoint: EC50 (nM)
Just the number please, in nM, no unit attached.

Supply recorded EC50 for O=C(NCc1c(F)cc(F)cc1F)c1cn2c(c(O)c1=O)C(=O)N1[C@H]3CC[C@H](C3)O[C@@H]1C2 here.
3.1

----------
Here, each record is paired with measured EC50 data.
Test system: Human immunodeficiency virus
Test: Antiviral activity against HIV-1 harboring integrase G140S/Q148H mutant
Format: functional, organism-based
Conditions: Human immunodeficiency virus 1
Lab book: enter the figure in nM, no units written.

INSERT INTO assay_data (input_smiles, tested_target, recorded_endpoint, test_value) VALUES
  ('Nc1c(C(=O)NCc2ccc(F)cc2F)c(=O)n(O)c2ncc(CCCCCCO)cc12', 'Human immunodeficiency virus', 'EC50', 0.9);

// below: EC50 requested for another molecule
Determine its reported EC50: C[C@@H]1CCO[C@H]2Cn3cc(C(=O)NCc4ccc(F)cc4F)c(=O)c(O)c3C(=O)N12
3.9

----------
Molecular target: Human immunodeficiency virus type 1 integrase (Human immunodeficiency virus 1, UniProt Q7ZJM1)
recorded-endpoint: pIC50
Reminder that pIC50 is minus the log10 of a molar concentration.

# return recorded pIC50 for input O=C(NCc1ccc(F)c(F)c1)c1c(O)c2cccnc2n(O)c1=O
6.40

Give pIC50 for O=C(NCc1ccc(F)cc1F)c1cc2cccnc2n(O)c1=O
6.39

Quick one: give measured pIC50 for O=C(NCc1ccc(F)c(Cl)c1)c1c(O)c2cccnc2n(O)c1=O
6.57

Provide one value: measured pIC50 of O=C(NCc1ccc(F)c(F)c1)c1cc2cccnc2n(O)c1=O
6.77

----------
Listed here: items and their measured pEC50.
System: Human immunodeficiency virus
Assay: Antiviral activity against HIV-1 harboring integrase N155H mutant
Type: functional, organism-based
Settings: Human immunodeficiency virus 1
Scale for pEC50: -log10 of concentration given in mol/L; no unit attached.

INSERT INTO assay_data (input_smiles, test_value) VALUES
  ('C[C@H](O)N1C(=O)c2c3c(c(O)c(=O)n2[C@]12CC[C@H]1C[C@H]12)C(=O)N(Cc1ccc(F)c(Cl)c1)CC3', 8.82);

Entry CC1(C)OCCn2c1nc(-c1ncc(Cc3ccc(F)cc3)[nH]1)c(O)c2=O needs its pEC50 filled in; supply it.
8.70

Give a short answer stating reported pEC50 for CC1(C)OCCn2c1nc(C(=O)NCc1ccc(F)cc1)c(O)c2=O .
6.85

----------
Molecular target: Human immunodeficiency virus type 1 integrase (Human immunodeficiency virus 1, UniProt Q7ZJM1, H51Y/R263K)
Experiment: Inhibition of HIV-1 integrase DTG-resistant H51Y/R263K double mutant
pEC50: −log10 of the molar value.
recorded-endpoint: pEC50

Specify reported pEC50 for the compound shown: O=C(NCc1c(F)cc(F)cc1F)c1cn2c(c(O)c1=O)C(=O)N1[C@H]3CC[C@H](C3)O[C@@H]1C2
≥ 8.30

// provenance: ChEMBL document CHEMBL5236553
